test: Oral bioavailability in dog; type: ADME, organism-based, Canis lupus familiaris; conditions: in vivo
quantityKind: bioavailability (%)
Response body: numeric value in %, unit text excluded.

// lookup bioavailability for `O=C(Cn1c(Cl)cnc(NCC(F)(F)c2cccc[n+]2[O-])c1=O)NCc1ncccc1F`
83

* * *

Measured half-life by item
test: t1/2 in dog; assay type: ADME, organism-based, Canis lupus familiaris; conditions: in vivo
The number alone won't do; follow it with the unit.

Here's what some known entries look like.
{"columns": ["lineNotation", "half-life"],
 "data": [
  ["COc1ccccc1CNC(=O)Cn1c(Cl)cnc(NCC(F)(F)c2cccc[n+]2[O-])c1=O", "3.8 h"],
  ["O=C(Cn1c(Cl)cnc(NCC(F)(F)c2cccc[n+]2[O-])c1=O)NCc1ccccc1OC(F)F", "2.8 h"],
  ["O=C(Cn1c(Cl)cnc(NCC(F)(F)c2cccc[n+]2[O-])c1=O)NCc1ccccc1C(F)(F)F", "3.7 h"],
  ["O=C(Cn1c(Cl)cnc(NCC(F)(F)c2cccc[n+]2[O-])c1=O)NCc1cc(Cl)ccc1Cl", "2.1 h"],
  ["O=C(Cn1c(Cl)cnc(NCC(F)(F)c2cccc[n+]2[O-])c1=O)NCc1cccc(OC(F)F)c1", "4.8 h"],
  ["O=C(Cn1c(Cl)cnc(NCC(F)(F)c2cccc[n+]2[O-])c1=O)NCc1ccccc1Cl", "2.9 h"],
  ["O=C(Cn1c(Cl)cnc(NCC(F)(F)c2cccc[n+]2[O-])c1=O)NCc1cc(F)ccc1C(F)(F)F", "2.8 h"],
  ["O=C(Cn1c(Cl)cnc(NCC(F)(F)c2cccc[n+]2[O-])c1=O)NCc1c(F)ccc(F)c1F", "3.5 h"]
]}

// lookup half-life for `Cc1cccc(CNC(=O)Cn2c(Cl)cnc(NCC(F)(F)c3cccc[n+]3[O-])c2=O)c1`
1.1 h

// lookup half-life for `O=C(Cn1c(Cl)cnc(NCC(F)(F)c2cccc[n+]2[O-])c1=O)NCc1cccc(Cl)c1Cl`
2.5 h

// lookup half-life for `O=C(Cn1c(Cl)cnc(NCC(F)(F)c2cccc[n+]2[O-])c1=O)NCc1cc(F)ccc1F`
3.9 h

// lookup half-life for `CCOc1ccccc1CNC(=O)Cn1c(Cl)cnc(NCC(F)(F)c2cccc[n+]2[O-])c1=O`
1.2 h

// lookup half-life for `O=C(Cn1c(Cl)cnc(NCC(F)(F)c2cccc[n+]2[O-])c1=O)NCc1ccccc1F`
4.9 h

// lookup half-life for `O=C(Cn1c(Cl)cnc(NCC(F)(F)c2cccc[n+]2[O-])c1=O)NCc1ccccc1OCC(F)(F)F`
2.5 h

// lookup half-life for `O=C(Cn1c(Cl)cnc(NCC(F)(F)c2cccc[n+]2[O-])c1=O)NCc1ccccc1OC(F)(F)F`
3 h

// lookup half-life for `COc1cccc(CNC(=O)Cn2c(Cl)cnc(NCC(F)(F)c3cccc[n+]3[O-])c2=O)c1`
2.8 h

// lookup half-life for `O=C(Cn1c(Cl)cnc(NCC(F)(F)c2cccc[n+]2[O-])c1=O)NCc1c(F)cccc1F`
6.2 h

// lookup half-life for `Cc1ccccc1CNC(=O)Cn1c(Cl)cnc(NCC(F)(F)c2cccc[n+]2[O-])c1=O`
3.6 h

* * *

assay: Vd in dog; format: ADME, organism-based, Canis lupus familiaris; conditions: in vivo
quantityKind: Vd (L/kg)
Response body: numeric value in L/kg, unit text excluded.

Here's what some known entries look like.
{"columns": ["molecule", "Vd [L/kg]"],
 "data": [
  ["O=C(Cn1c(Cl)cnc(NCC(F)(F)c2ccccn2)c1=O)NCc1ncccc1F [DPOC-4088]", 0.62],
  ["O=C(Cn1c(Cl)cnc(NCC(F)(F)c2cccc[n+]2[O-])c1=O)NCc1ncccc1Cl", 1.17]
]}

Here is another molecule to look at.
// lookup Vd for `O=C(Cn1c(Cl)cnc(NCC(F)(F)c2cccc[n+]2[O-])c1=O)NCc1ncccc1F`
1.13

* * *

experiment: Vd (10 mg/kg) was determined in rat (in vivo); type: ADME, organism-based
quantityKind: Vd (L/kg)
Response body: numeric value in L/kg, unit text excluded.

// lookup Vd for `O=C(Cn1c(Cl)cnc(NCC(F)(F)c2cccc[n+]2[O-])c1=O)NCc1ccccc1F`
0.93

* * *

experiment: Maximum plasma concentration (Cmax) in rhesus monkey(in vivo) at a dose of 5 mg/kg; assay type: ADME, organism-based; design: dose 5 mg/kg; conditions: cercopithecidae
quantityKind: Cmax (nM)
Response body: numeric value in nM, unit text excluded.

// lookup Cmax for `O=C(Cn1c(Cl)cnc(NCC(F)(F)c2cccc[n+]2[O-])c1=O)NCc1ccccc1F`
1050

* * *

experiment: Half life period after intravenous administration (5 mg/kg) was determined in rhesus (in vivo); assay type: ADME, organism-based, Macaca mulatta; conditions: rhesus monkey
quantityKind: half-life (h)
Response body: numeric value in h, unit text excluded.

// lookup half-life for `O=C(Cn1c(Cl)cnc(NCC(F)(F)c2cccc[n+]2[O-])c1=O)NCc1ccccc1F`
1.1

* * *

assay: Plasma clearance (pharmacokinetic parameter) in dog (in vivo) at a dose of 1 mg/kg; type: ADME, organism-based, Canis lupus familiaris; design: dose 1 mg/kg; settings: read-out: Clp
quantityKind: clearance
The number alone won't do; follow it with the unit.

// lookup clearance for `O=C(Cn1c(Cl)cnc(NCC(F)(F)c2cccc[n+]2[O-])c1=O)NCc1ccccc1F`
1.55 mL/min/kg

* * *

assay: Vd (1 mg/kg) was determined in dog (in vivo); format: ADME, organism-based, Canis lupus familiaris
quantityKind: Vd (L/kg)
Response body: numeric value in L/kg, unit text excluded.

// lookup Vd for `O=C(Cn1c(Cl)cnc(NCC(F)(F)c2cccc[n+]2[O-])c1=O)NCc1ccccc1F`
0.49

* * *

assay: Vd (5 mg/kg) was determined in rhesus (in vivo); type: ADME, organism-based, Macaca mulatta; settings: rhesus monkey
quantityKind: Vd (L/kg)
Response body: numeric value in L/kg, unit text excluded.

// lookup Vd for `O=C(Cn1c(Cl)cnc(NCC(F)(F)c2cccc[n+]2[O-])c1=O)NCc1ccccc1F`
1.5

* * *

test: Plasma clearance (pharmacokinetic parameter) in rhesus (in vivo) at a dose of 5 mg/kg; assay type: ADME, organism-based, Macaca mulatta; parameters: dose 5 mg/kg; conditions: rhesus monkey, read-out: Clp
quantityKind: clearance
The number alone won't do; follow it with the unit.

// lookup clearance for `O=C(Cn1c(Cl)cnc(NCC(F)(F)c2cccc[n+]2[O-])c1=O)NCc1ccccc1F`
19 mL/min/kg

* * *

experiment: Maximum plasma concentration (Cmax) in dog at a dose of […] mg/kg; format: ADME, organism-based, Canis lupus familiaris; details: 0.5 mg/kg
Measured Cmax by item

Here's what some known entries look like.
{"columns": ["lineNotation", "Cmax"],
 "data": [
  ["O=C(Cn1c(Cl)cnc(NCC(F)(F)c2cccc[n+]2[O-])c1=O)NCc1cccc(Cl)c1", "1910 nM"],
  ["COc1ccccc1CNC(=O)Cn1c(Cl)cnc(NCC(F)(F)c2cccc[n+]2[O-])c1=O", "2480 nM"],
  ["O=C(Cn1c(Cl)cnc(NCC(F)(F)c2cccc[n+]2[O-])c1=O)NCc1cccc(F)c1", "1370 nM"]
]}

// lookup Cmax for `O=C(Cn1c(Cl)cnc(NCC(F)(F)c2cccc[n+]2[O-])c1=O)NCc1ccccc1C(F)(F)F`
1430 nM

* * *

assay: t1/2 in dog; format: ADME, organism-based, Canis lupus familiaris; details: in vivo
Measured half-life by item
Response body: numeric value in h, unit text excluded.

Here's what some known entries look like.
{"columns": ["lineNotation", "resultUnit", "recordedMeasurement"],
 "data": [
  ["O=C(Cn1c(Cl)cnc(NCC(F)(F)c2cccc[n+]2[O-])c1=O)NCc1ccccc1", "h", 6.3],
  ["O=C(Cn1c(Cl)cnc(NCC(F)(F)c2cccc[n+]2[O-])c1=O)NCc1c(F)cccc1C(F)(F)F", "h", 2.4],
  ["O=C(Cn1c(Cl)cnc(NCC(F)(F)c2cccc[n+]2[O-])c1=O)NCc1cc(Cl)ccc1F", "h", 2.1]
]}

// lookup half-life for `O=C(Cn1c(Cl)cnc(NCC(F)(F)c2cccc[n+]2[O-])c1=O)NCc1ncccc1Cl`
5.5

// lookup half-life for `O=C(Cn1c(Cl)cnc(NCC(F)(F)c2cccc[n+]2[O-])c1=O)NCc1cccc(Cl)c1`
2.6

// lookup half-life for `O=C(Cn1c(Cl)cnc(NCC(F)(F)c2cccc[n+]2[O-])c1=O)NCc1cccc(F)c1`
4.1

// lookup half-life for `O=C(Cn1c(Cl)cnc(NCC(F)(F)c2cccc[n+]2[O-])c1=O)NCc1ccc(F)c(Cl)c1`
2.4

// lookup half-life for `O=C(Cn1c(Cl)cnc(NCC(F)(F)c2cccc[n+]2[O-])c1=O)NCc1ncccc1F`
2.5

// lookup half-life for `O=C(Cn1c(Cl)cnc(NCC(F)(F)c2cccc[n+]2[O-])c1=O)NCc1cccc(Br)c1`
3.6
